Cited source: paper PMC12728192

Molecular target: Thermothelomyces thermophilus SAM complex (sorting and assembly machinery complex; Sam50:Sam35:Sam37, monomer) (Thermothelomyces thermophilus)
Sequence (chain, as listed by the source, chain 1 of 3): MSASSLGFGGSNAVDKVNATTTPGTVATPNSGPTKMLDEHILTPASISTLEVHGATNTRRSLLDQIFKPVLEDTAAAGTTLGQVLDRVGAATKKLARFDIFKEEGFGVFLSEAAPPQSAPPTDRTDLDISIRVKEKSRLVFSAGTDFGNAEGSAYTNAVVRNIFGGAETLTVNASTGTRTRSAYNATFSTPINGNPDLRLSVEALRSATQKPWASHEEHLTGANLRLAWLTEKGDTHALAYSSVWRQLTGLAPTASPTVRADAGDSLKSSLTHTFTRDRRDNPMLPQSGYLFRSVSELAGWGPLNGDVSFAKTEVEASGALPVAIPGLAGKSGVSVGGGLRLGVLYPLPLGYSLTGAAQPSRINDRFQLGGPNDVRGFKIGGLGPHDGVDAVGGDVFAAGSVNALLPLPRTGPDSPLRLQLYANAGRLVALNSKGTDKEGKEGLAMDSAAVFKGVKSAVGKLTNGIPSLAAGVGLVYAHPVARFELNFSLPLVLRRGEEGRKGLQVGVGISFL
Sequence (chain, as listed by the source, chain 2 of 3): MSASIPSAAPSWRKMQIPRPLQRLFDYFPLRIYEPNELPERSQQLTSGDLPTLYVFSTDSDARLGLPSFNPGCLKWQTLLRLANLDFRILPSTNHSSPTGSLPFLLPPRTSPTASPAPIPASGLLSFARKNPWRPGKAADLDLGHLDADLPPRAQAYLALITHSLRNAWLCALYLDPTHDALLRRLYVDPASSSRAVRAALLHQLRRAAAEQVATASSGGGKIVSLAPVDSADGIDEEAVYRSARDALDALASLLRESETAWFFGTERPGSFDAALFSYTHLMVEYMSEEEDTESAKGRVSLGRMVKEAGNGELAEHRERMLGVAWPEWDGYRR
Sequence (chain, as listed by the source, chain 3 of 3): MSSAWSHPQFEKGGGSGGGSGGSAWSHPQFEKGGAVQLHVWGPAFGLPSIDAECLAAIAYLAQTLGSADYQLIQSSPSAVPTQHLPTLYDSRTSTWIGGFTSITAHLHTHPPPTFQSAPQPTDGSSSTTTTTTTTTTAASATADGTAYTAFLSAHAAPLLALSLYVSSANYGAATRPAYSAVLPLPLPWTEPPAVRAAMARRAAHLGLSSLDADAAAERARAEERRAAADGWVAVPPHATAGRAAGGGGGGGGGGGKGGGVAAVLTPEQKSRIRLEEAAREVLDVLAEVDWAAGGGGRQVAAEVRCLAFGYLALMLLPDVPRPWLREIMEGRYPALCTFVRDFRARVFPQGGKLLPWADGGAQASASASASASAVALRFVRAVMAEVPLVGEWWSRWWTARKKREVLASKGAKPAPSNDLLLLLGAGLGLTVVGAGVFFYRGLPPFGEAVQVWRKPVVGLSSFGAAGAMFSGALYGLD
Assay: MST; replicate 1; detergent
Ends that are not written are not given here.
PARAMETER MEASURED: Kd
The answer should read as a number with its unit following.

Notebook: WNWSKSF (also: backbone cyclizations, places not given here) [darobactin A] , Kd read as 149 nM
